# ASSAYED SYSTEM: BCL-2 recombinant protein (Homo sapiens, UniProt P10415)
# Sequence (P10415 whole entry): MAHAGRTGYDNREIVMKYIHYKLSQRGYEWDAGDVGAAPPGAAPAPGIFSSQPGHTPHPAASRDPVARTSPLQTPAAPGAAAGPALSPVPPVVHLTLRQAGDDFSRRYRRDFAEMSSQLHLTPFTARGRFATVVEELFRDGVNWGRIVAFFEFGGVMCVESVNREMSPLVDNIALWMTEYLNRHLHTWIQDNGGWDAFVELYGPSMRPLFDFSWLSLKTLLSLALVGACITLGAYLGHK
# PROTOCOL SUMMARY: Cell free Bcl-2:Bak affinity assay (Bcl-2 Bak), HTRF competition of FAM-Bak peptide
# Assay type: binding
# EXPERIMENTAL PARAMETERS: 1 μM compound, 4 nM BCL-2 recombinant protein, 100 nM FAM-Bak, read-out: potency (% inhibition at 1 μM)
I'd appreciate it if you could supply inhibition at 1 µM values for the items below.

Task: Suppose we examine the compound Cc1ncc(C(=O)NS(=O)(=O)c2ccc(N3CCN(CC4=C(c5ccc(Cl)cc5)CC(C)(C)CC4)CC3)cc2)cn1 ; what inhibition at 1 µM value has been reported?
Output: 50 to 90%

Task: Then this compound: CC1(C)CCC(CN2CCN(c3ccc(S(=O)(=O)NC(=O)c4ccc5sccc5c4)cc3)CC2)=C(c2ccc(Cl)cc2)C1
Output: 50 to 90%

Task: Follow-up entry: CC1(C)CCC(CN2CCN(c3ccc(S(=O)(=O)NC(=O)c4ccc(F)c(-n5ccnc5)n4)cc3)CC2)=C(c2ccc(Cl)cc2)C1
Output: 50 to 90%

Cited source: patent US11622970B2
